All figures here come from the supplement of paper PMC3545927.

# Tested on: furin, P09958;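 further: purified furin at 1:10 enzyme:substrate in 50 mM HEPES pH 7.5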
# Sequence (P09958 whole entry): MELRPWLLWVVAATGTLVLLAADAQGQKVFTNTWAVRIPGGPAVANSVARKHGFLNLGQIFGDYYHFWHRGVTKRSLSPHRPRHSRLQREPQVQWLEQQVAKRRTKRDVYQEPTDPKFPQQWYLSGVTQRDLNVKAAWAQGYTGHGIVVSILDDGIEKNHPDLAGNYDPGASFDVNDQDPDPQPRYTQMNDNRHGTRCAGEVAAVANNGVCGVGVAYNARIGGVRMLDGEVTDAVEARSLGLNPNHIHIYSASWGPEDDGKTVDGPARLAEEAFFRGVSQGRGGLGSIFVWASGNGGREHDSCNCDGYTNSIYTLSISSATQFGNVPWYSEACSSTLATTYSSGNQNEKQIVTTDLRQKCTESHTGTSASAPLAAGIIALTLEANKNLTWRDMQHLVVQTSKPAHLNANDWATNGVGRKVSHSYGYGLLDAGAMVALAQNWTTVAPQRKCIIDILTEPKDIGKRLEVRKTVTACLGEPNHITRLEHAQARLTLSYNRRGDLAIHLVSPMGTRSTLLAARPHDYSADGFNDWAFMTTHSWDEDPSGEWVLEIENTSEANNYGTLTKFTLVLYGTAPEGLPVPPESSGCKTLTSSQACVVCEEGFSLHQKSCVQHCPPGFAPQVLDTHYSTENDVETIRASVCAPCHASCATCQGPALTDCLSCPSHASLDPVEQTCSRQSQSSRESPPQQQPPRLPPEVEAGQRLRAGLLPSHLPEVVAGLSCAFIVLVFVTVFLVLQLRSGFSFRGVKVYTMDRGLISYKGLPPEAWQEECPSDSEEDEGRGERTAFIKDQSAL
# Assay name: furin cleavage Z-score vs untreated control; higher = more cleavage, active = 3.5 or more, inactive = 1 or less, 8 variable residues between constant flanks
# Measurement parameters: 30 min
This is one part of the list. The hit rate among all sequences tested is not known here.
Label 1 for high-side furin cleavage Z-score (at or above 2) and 0 for low-side furin cleavage Z-score (below it).

>>> discrete_label("CARYRRLTGDAGNASASA [FS-1843]")
0

# check: furin cleavage Z-score of CALAVFGPLWAGNASASA [HC607] is greater than or equal to 2
0

# check: furin cleavage Z-score of CATTPCSNSWAGNASASA [HC1901] is greater than or equal to 2
0

# check: furin cleavage Z-score of CASKKRSNGLAGNASASA [FS-3136] is greater than or equal to 2
1

# check: furin cleavage Z-score of CARAERAARFAGNASASA [FS-185] is greater than or equal to 2
1
